pIC50: −log10 of the molar value.
// merged dataset of pIC50 values, system = Epidermal growth factor receptor (Homo sapiens, UniProt P00533), multiple refs
endpoint name: pIC50

1) COc1cc(N2CCC(N3CCN(C)CC3)CC2)ccc1Nc1ncc(Cl)c(Nc2cccc3c2N(C(=O)N(C)C)CC3)n1 | 5.86
2) CCOc1nn(CCO)c2c1/C=C/c1n[nH]c3ccc(cc13)-c1cnn(CC)c1O[C@@H](C)CN(C)C2 | 7.78
3) CC(C)Oc1nn(CCO)c2c1/C=C/c1n[nH]c3ccc(cc13)-c1cnn(C)c1O[C@@H](C)CN(C)C2 | 8.50

a. Cc1nn(CCN2CCCC2)c2c1/C=C/c1n[nH]c3ccc(cc13)-c1cnn(C)c1C(C)OCCO2 (stereo not shown)
b. CNc1nc(Nc2ccc(N3CCC(N4CCN(C)CC4)CC3)cc2OC)ncc1-c1ccc(O)c(C=O)c1
Which numeric pIC50 is bigger, that of a or that of b ? Returns: label corresponding to the selected item.
b
(b: 7.72, a: 6.54)

---

Header: pIC50 / Epidermal growth factor receptor (Homo sapiens) / multiple publications
pIC50: −log10 of the molar value.

Please review the following examples before continuing.
1. Cc1ccnc(NC(=O)c2ccc(Oc3ccnc4[nH]nc(N[C@@H]5CCN(C#N)C5)c34)cc2)c1 | 5.00 to 6.00
2. CCOc1nn([C@@H](C)CO)c2c1/C=C/c1n[nH]c3cc(F)c(cc13)-c1cnn(C)c1O[C@@H](C)CN(CC)C2 | 8.77
3. C=CC(=O)Nc1cc(Nc2nc(-c3ccnc(N4CCn5c(cc6c5CC(C)(C)C6)C4=O)c3CO)cn(C)c2=O)ccc1N1CCN(C2CCOCC2)C[C@H]1C(F)(F)F | < 6.00
4. C=CC(=O)N1CCOc2c1ccc1ncnc(Oc3ccc(OCc4ccccn4)cc3)c21 | ≥ 7.30
5. CCOc1cc(Nc2ncc(Br)c(Nc3ccc(-c4ccc(C)cn4)cc3P(C)(C)=O)n2)c(C)cc1N1CCOCC1 | 7.37
6. CC(C)c1nc(-c2cccc(NS(=O)(=O)c3cccnc3)c2)c(-c2ccnc(Nc3ccc(N4CCOCC4)nc3)n2)s1 | 6.00 to 7.00

Requested read-out: pIC50. Entry: CCC(=O)N1CC[C@@H](Nc2n[nH]c3nccc(Oc4ccc(C(=O)Nc5ncc(C)s5)cc4)c23)C1
5.00 to 6.00

Same for CCNc1nc(-c2cc(C)cc(OC)c2)c(-c2ccnc(Nc3ccc4c(c3)CCN4C(C)=O)n2)s1
< 6.00

Item: CCNC(=O)N1CCC[C@@H](Nc2n[nH]c3nccc(Oc4ccc(-c5nc6ccccc6s5)cc4)c23)C1
< 5.00

Same question for COC[C@@H]1CCCN1Cc1ccc(Nc2nc3ncnc(Nc4ccc(F)c(Cl)c4)c3s2)cc1 please.
7.93

Lookup C[C@H]1CN(C)Cc2c(c(O[C@H]3CCN(S(C)(=O)=O)C3)nn2CCO)/C=C/c2n[nH]c3ccc(cc23)-c2cnn(C)c2O1
6.86

Please do the same for Nc1ncnc2c1c(-c1ccc(C(=O)Nc3cc(C(F)(F)F)ccn3)cc1)nn2[C@@H]1CCN(C(=O)/C=C/CNC2CC2)C1 as well.
> 7.00

Query Cc1cc(Nc2ncnc3sc4c(c23)CCN(C(=O)/C=C/CN(C)C)C4)ccc1Oc1ccc2nonc2c1 next
< 5.00

Same read-out for COc1cc(N2CCC(N3CCN(C)C4(CC4)C3)CC2)ccc1Nc1ncc(Br)c(Nc2cccc3c2N(S(C)(=O)=O)CC3)n1 ?
9.15

Okay, and C=CC(=O)N1CCc2ccc(-c3c(-c4ccc(N5CCN(C)CC5)cc4)[nH]c4nccc(Cl)c34)cc21 ?
≥ 7.00

# iterate: Oc1ccc(CCNCc2ccc(-c3ccc4ncnc(Nc5ccc(OCc6cccc(F)c6)c(Cl)c5)c4c3)o2)cc1
> 5.00

Can you check C#Cc1cccc(Nc2ncnc3cc(OC4CCOCC4)c4c(c23)OCCO4)c1 next?
> 7.00

---

Below, IC50 values reported for Epidermal growth factor receptor (Homo sapiens, UniProt P00533) across several publications.
endpoint name: IC50 (nM)

1. CC#CC(=O)N1CCC[C@@H](n2nc(-c3ccc(Oc4ccccc4)cc3)c3c(N)ncnc32)C1 | 435

I. CC#CC(=O)N1CCCC[C@H]1c1nc(-c2ccc(C(=O)Nc3cc(Cl)ccn3)cc2)c(C(N)=O)n1N
II. Cc1nn(C)c2c1/C=C/c1n[nH]c3ccc(cc13)-c1cnn(C)c1O[C@@H](C)CN(C)[C@@H]2C (single isomer, unassigned)
III. CCc1cc(Nc2ncc(Br)c(Nc3ccc(-n4cc(C)cn4)cc3P(C)(C)=O)n2)c(OC)cc1N1CCC(N2CCN(C)CC2)CC1
IV. C=CC(=O)Nc1cc(Nc2ncc(Cl)c(Nc3ccc4ccccc4c3)n2)c(OC)cc1N1CCN(C)CC1
Provide the items ranked by increasing IC50. Your task in answering is to list the labels in the requested order.
II, III, IV, I

---

Literature-derived IC50 for Epidermal growth factor receptor (Homo sapiens, UniProt P00533) follows.
endpoint name: IC50 (nM)

1) COc1cc(Nc2nc3ncnc(Nc4ccc(F)c(Cl)c4)c3s2)ccc1CN1CCCCC1 | 20

P. CCc1cc(Nc2ncc(Cl)c(Nc3ccc(-c4nccc(OC)n4)cc3P(C)(C)=O)n2)c(OC)cc1N1CCC(N2CCN(C)CC2)CC1
Q. Cc1cc(NC(=O)/C=C/CN(C)C)cc(Nc2ncc(Br)c(Nc3ccc4ccccc4c3)n2)c1
R. C=CC(=O)Nc1cc(CN(C)CCN(C)C)cc(Nc2ncc(Cl)c(Nc3ccc4ccccc4c3)n2)c1
Parameters: sort_field (IC50), sort_dir (desc). Write the labels, ordered according to the request.
Q, R, P

---

pIC50: −log10 of the molar value.
Epidermal growth factor receptor (Homo sapiens) pIC50, compiled from various sources.

The examples below pair each entry with its known result.
1. COCCN1CCC(Nc2ccc3c(c2)/C(=C(\c2cccc(F)c2)c2nc(C)c[nH]2)C(=O)N3)CC1 | 6.30 to 7.30
2. COCCOc1ccc(Nc2ncc3[nH]c(=O)n(-c4cccc(NC(=O)/C=C/CN(C)C)c4)c3n2)cc1 | 5.00 to 6.00
3. CCOc1cc(Nc2ncc(Br)c(Nc3ccc(-c4cnn(C)n4)c(F)c3P(C)(C)=O)n2)c(C)cc1N1CCOCC1 | 7.19
4. Cc1ccc(Oc2ccc(Nc3ncnc4sc5c(c34)C(C)CN(C(=O)C=CCN(C)C(C)(C)C)C5)cc2C)cn1 (single isomer, unassigned) | < 5.00

In the following, a different molecule is considered.
Which pIC50 value is on record for C=CC(=O)Nc1cc(-c2c(-c3ccc(N4CCN(C(C)=O)CC4)cc3)[nH]c3nccc(OC)c23)ccc1C ?
≥ 7.00

---

Compiled literature IC50, tested on Epidermal growth factor receptor (Homo sapiens, UniProt P00533).

Here is how some compounds turned out for IC50.
1. Cc1ccc(Oc2ccc(Nc3ncnc4sc5c(c34)CCN(C(=O)/C=C/CN3CC(F)(CO)C3)C5)cc2C)cn1 | > 10 µM
2. Cc1ccc(Oc2ccc(Nc3ncnc4sc5c(c34)CCN(C(=O)/C=C/CN[C@H]3CC[C@H](OC4CC4)CC3)C5)cc2C)cn1 | > 10 µM
3. COc1cc(/C=C2\CCC/C(=C\c3ccc(OC)c(O)c3)C2=O)cc(OC)c1 | 5.37 µM

Turning now to a further compound:
# lookup: IC50 of Cc1ccc(-c2nc(C(C)C)sc2-c2ccnc(Nc3ccc(N4CCOCC4)nc3)n2)cc1NS(=O)(=O)c1c(F)cccc1F
0.1 to 1 µM

---

Target or system Epidermal growth factor receptor (Homo sapiens, UniProt P00533); metric IC50; compiled from varied reports.

1. N#Cc1ccnc(NC(=O)c2ccc(Oc3ccnc4[nH]nc(NC5CCOCC5)c34)cc2)c1 | 1 to 10 µM
2. CC(C)Oc1nn(CCO)c2c1/C=C/c1n[nH]c3cc(F)c(cc13)-c1cnn(C)c1O[C@H](C)CN(C(C)C)C2 | 0.0997 µM
3. CC(C)c1nc(-c2cccc(NS(=O)(=O)c3c(F)cccc3F)c2F)c(-c2ccnc(Nc3ccc(N4CCN(CCF)CC4)c(F)c3)n2)s1 | > 1 µM
4. CN1CCN(c2ccc3[nH]c(-c4cc(-c5ccc(NC(=O)Nc6cc(C(F)(F)F)cc(C(F)(F)F)c6)cc5)[nH]n4)nc3c2)CC1 | > 5 µM
5. COc1ccc(Nc2ncc3c(n2)N(c2ccccc2)C(=O)N(c2ccc(OC)cc2)C3)cc1 | 0.18 µM
6. C=CC(=O)Nc1cc(-c2c(-c3cccc(OCCCN(C)C)c3)[nH]c3ncc(C(=O)OC(C)C)cc23)ccc1C | ≤ 0.1 µM

# evaluate next
Query: IC50; subject: Nc1ncnc2c1c(-c1ccc(CNC(=O)c3cccc4cccnc34)cc1)nn2C1CCCC1
0.1 to 1 µM

---

Compiled pIC50 measurements on Epidermal growth factor receptor (Homo sapiens, UniProt P00533) taken from the literature.
pIC50: −log10 of the molar value.

Worked examples follow.
1. COc1ccc(Oc2ccc(Nc3ncnc4sc5c(c34)C(C)CN(C(=O)C=CCN(C)C)C5)cc2C)cn1 (single isomer, unassigned) | < 5.00
2. C=CC(=O)N1CC[C@@H](n2nc(-c3ccc(C(=O)Nc4cc(C)ccn4)cc3)c3c(N)ncnc32)C1 | ≥ 8.00
3. C=CC(=O)N1CCOc2c1ccc1ncnc(Oc3ccc(OCc4ccccc4F)cc3)c21 | ≥ 7.30

Next, consider the following compound.
Which pIC50 is reported for this compound? Cc1cccc(Nc2ncnc3nc(Nc4ccc(S(N)(=O)=O)cc4)sc23)c1
7.84
